Data provenance is PubChem BioAssay (NCI).

System: M14 melanoma
method-notes: NCI-60 one-dose screen, 48 h
details: 10 µM unless noted
The panel holds about 83,000 compounds, 20% with a hit somewhere; the sample as a whole holds those more often. Active and inactive are the calls of the source. How the source made its calls: active means growth percent below 10; inactive means the rest.
# valid calls are active, inactive; nothing else

Examples with answers:
                                   compound  assay_target     class
0  COc1cc2nc(-c3cnc(N(C)C)nc3)nc(NC3CCN(Cc4ccccc4)CC3)c2cc1OC  M14 melanoma    active
1  COc1ccc(/C=C/C(=O)c2ccc3cc(OC)c(OC)cc3c2)cc1OC  M14 melanoma  inactive
2  CCCCC1COc2cccc3c2N1C=C/C3=C\C(=O)N(C)c1ccccc1 (stereo unspecified)  M14 melanoma  inactive
3  COc1ccc2c(c1)C=C1CSCC3=Cc4cc(OC)ccc4OC13O2  M14 melanoma  inactive
4  COc1cc(OC)cc(N2C(=O)N(Cc3ccc(C(C)(C)C)cc3)c3ccccc3S2(=O)=O)c1  M14 melanoma  inactive

Per the records of this test, what outcome belongs to O=C1c2ccc3c4c(ccc(c24)C(=O)N1CCCCO)C(=O)N(CCCCO)C3=O ? inactive

Per the records of this test, what outcome belongs to CCOC(=O)c1c2c(c(C)n1Cc1ccc(OC)cc1)-c1oncc1CC2 ? inactive

Per the records of this test, what outcome belongs to COc1ccc(C2C3=C(COC3=O)N(CCO)c3cc4c(cc32)CCC4)cc1OC (stereo unspecified) ? active

Per the records of this test, what outcome belongs to O=C(N/N=C/c1ccccc1O)C(=O)Nc1ccc(F)cc1 ? inactive

Per the records of this test, what outcome belongs to CC(C)[C@H](NC(=O)Cn1cc(C(=O)O)nn1)C(=O)O ? inactive

Per the records of this test, what outcome belongs to CCn1c(-c2nonc2Nc2ccc(OC)cc2)nc2ccccc21 ? inactive

Per the records of this test, what outcome belongs to CC1=C(CC(=O)c2cccc([N+](=O)[O-])c2)C(=O)c2ccccc2C1=O ? active

Per the records of this test, what outcome belongs to CCOc1ccc2nc(C)cc(Nc3ccc(Br)cc3)c2c1 ? inactive

Per the records of this test, what outcome belongs to COc1cc(C=C2C(=O)N(C)C(=O)N(C)C2=O)cc(CN2CCCCC2)c1O ? inactive

Per the records of this test, what outcome belongs to O=C1/C(=C\c2ccc[nH]2)c2ccccc2N1c1ccccc1 ? inactive

Per the records of this test, what outcome belongs to Cc1ccc(N=NC2C(=O)N(c3ccc(Cl)cc3)N(c3ccc(Cl)cc3)C2=O)cc1 ? inactive

Per the records of this test, what outcome belongs to Cc1ccc(OCCCCCCNCCO)c(C)c1 ? active

Per the records of this test, what outcome belongs to COc1c(B(O)O)cccc1-c1nc2ccc3n[nH]c(F)c3c2c2c1CCCC2 ? inactive

Per the records of this test, what outcome belongs to COc1cc(C(=O)O/N=C(\N)Cc2cccc3ccccc23)cc(OC)c1OC ? active

Per the records of this test, what outcome belongs to COc1ccc(Nc2cc(C)nc(NCc3ccccc3)n2)cc1 ? active

Per the records of this test, what outcome belongs to O=C1CCC(N2C(=O)c3cccc(NCCCCCCOc4ccc(Nc5nccc(Nc6ccccc6)n5)cc4)c3C2=O)C(=O)N1 (stereo unspecified) ? inactive

* * *

A collection of compounds and their measured growth
System: M14 melanoma
method-notes: NCI-60 one-dose screen, 48 h (100 = growth as untreated, 0 = no growth, -100 = all killed)
details: 10 µM unless noted
About 83,000 compounds went through this panel and 20% of them were active in at least one assay; those are over-represented in the sample as a whole. The source made the active and inactive calls. How the source made its calls: active means growth percent below 10; inactive means the rest.

The examples below pair each entry with its known result.
compound	assay-target	endpoint-value
CN=c1ccc2nc3ccc(N)cc3sc-2c1	M14 melanoma	9.39% (active)
O=c1oc2ccc(Br)cc2c(=O)n1-c1ccc(Br)cc1F	M14 melanoma	-12.4% (active)
CC(=O)c1ccc(Nc2nc(NCCO)nc(Nc3ccc(Cl)cc3)n2)cc1	M14 melanoma	114% (inactive)

// query growth value for entry CC[C@]1(O)C[C@@H]2CN(CCc3c([nH]c4ccccc34)[C@@](C(=O)OC)(c3cc4c(cc3OC)N(C)[C@H]3[C@@](O)(C(=O)OC)[C@H](OC(C)=O)[C@]5(CC)C=CCN6CC[C@]43[C@@H]65)C2)C1 3.97% (active)

// query growth value for entry COc1ccc(Cn2c(Br)c3c(c2Br)-c2nc(NC(=O)c4ccc(OC)cc4)sc2CC3)cc1 80.4% (inactive)

// query growth value for entry O=c1oc2ccc(Cl)cc2c(=O)n1-c1ccc(I)cc1F 2.42% (active)

// query growth value for entry Nc1nc(-c2cnccn2)nn1-c1nc2ccccc2s1 99.2% (inactive)

// query growth value for entry COC(=O)/C(CCC=C(C)C)=C1\[C@@H](OC(C)=O)C[C@@]2(C)[C@H]1CC(=O)N[C@H]1[C@@]3(C)CCNC(=O)[C@@H](C)[C@@H]3CC[C@@]12C 98.5% (inactive)

// query growth value for entry Nc1ccn(C2O[C@H](CO)[C@@H](O)[C@H]2O)c(=O)n1 (some centres undefined) 107% (inactive)

// query growth value for entry CCN1C(=O)N(CC)C2C1NC(=S)N2/N=C/C=C/c1ccccc1OC (centres undefined) 7.43% (active)

* * *

System: HCT-15 colon
method-notes: NCI-60 one-dose screen, 48 h (100 = growth as untreated, 0 = no growth, -100 = all killed)
details: 10 µM unless noted
Compounds without any hit were thinned out: in the full panel of roughly 83,000, 20% have a hit.
readout-kind: growth (%)
Record the value in %, omitting the unit from your answer.

The examples below pair each entry with its known result.
compound	quantity-unit	growth
COc1ccc(/C=C2/SC(=O)N(CC(=O)N3CCN(c4cc5c(cc4F)c(=O)c(C(=O)O)cn5C4CC4)CC3)C2=O)cc1	%	109
COc1cc2nc(-c3cnc(N(C)C)nc3)nc(NC3CCN(Cc4ccccc4)CC3)c2cc1OC	%	-85.9
O=C(NCc1ccco1)C1CN(c2ccc(Cl)cc2)N(c2ccc(Cl)cc2)C1=O (stereo not given)	%	28.4
COc1ccc(OC)c(/C=C/C(=O)c2c(C)nc3ccccc3c2/C=C/c2ccccc2)c1	%	37.6
COc1ccc2c(c1)C=C1CSCC3=Cc4cc(OC)ccc4OC13O2	%	18.2
COC(=O)[C@@H]1CCCN1C(=O)[C@H]1CCCN1C(=O)[C@@H](Cc1c[nH]c2ccccc12)NC(=S)Nc1cc(C(F)(F)F)cc(C(F)(F)F)c1	%	43.5
COc1ccccc1CNC(=O)C1c2ccccc2C(=O)N(CC(C)C)C1c1cccs1 (stereo not given)	%	30.8
O=C(COc1cc(O)c2c(=O)cc(-c3ccccc3)oc2c1)Nc1ccccc1	%	96

// query growth value for entry Cn1c(=O)n(C)c2cc(CNCCNc3ccnc4cc(Cl)ccc34)ccc21 9.62

// query growth value for entry COC(=O)[C@H](NC(=O)C1(C)CCC[C@]2(C)[C@H]3C[C@H]4C(C(C)C)=C[C@]3(CC[C@@H]12)[C@@H]1C(=O)CCC(=O)[C@@H]14)C(C)C (stereo not given in full) 95.3

// query growth value for entry NCCCNc1nc2ccccc2c2c(=O)c3cc(F)ccc3sc12 -49.3

// query growth value for entry Nc1nonc1-n1nncc1-c1cccnc1 101

// query growth value for entry O=C(CCc1nnc2sc(COc3ccccc3)nn12)c1nc2ncccc2[nH]1 100

* * *

Test system: MALME-3M melanoma
method-notes: NCI-60 one-dose screen, 48 h (100 = growth as untreated, 0 = no growth, -100 = all killed)
details: 10 µM unless noted
This is part of a sample that, as a whole, favours compounds with a hit. Of some 83,000 tested, about 20% had one in any assay.
readout-kind: growth (%)
Record the value in %, omitting the unit from your answer.

The examples below pair each entry with its known result.
In [3]: df
Out[3]:
                                   molecule  endpoint_value
0  COc1ccc(C(O)(CCC(C)C)C(CN2CCOCC2)c2ccc(Cl)cc2)cc1 (centres undefined)            39.2
1  COc1c(B(O)O)cccc1-c1nc2ccc3[nH]ncc3c2c2c1C1CCC2C1 (centres undefined)             136

Form field - read-out: growth; system: MALME-3M melanoma; submitted item: Fc1cccc(COc2ccc(Nc3ncnc4onc(-c5ccccc5)c34)cc2)c1 41

Form field - read-out: growth; system: MALME-3M melanoma; submitted item: FC(F)(F)c1cccc(Nc2nc(-c3ccccc3)nc3ncccc23)c1 -83.1

* * *

Tested on: U251 CNS
method-notes: NCI-60 one-dose screen, 48 h (100 = growth as untreated, 0 = no growth, -100 = all killed)
details: 10 µM unless noted
This is part of a sample that, as a whole, favours compounds with a hit. Of some 83,000 tested, about 20% had one in any assay.
Mark y only when growth stays strictly below 30%. Values equal to the cut-off are n.

Examples with answers:
In [3]: df
Out[3]:
                                   compound  class
0           CCN(CC)CCCNc1ccnc2cc3ccccc3cc12      n
1  COc1ccc(/C(C#N)=C/c2nc3c(N4CCOCC4)nc(Cl)nc3n2C)cc1OC      y
2   CCOC(=O)c1cc2c(n1Cc1ccccc1)-c1oncc1CCC2      n
3  COc1cc(C(=O)NN=C2c3ccccc3-c3ccccc32)cc(OC)c1OC      y
4  CCCCC1COc2cccc3c2N1C=C/C3=C\C(=O)N(C)c1ccccc1 (stereo unspecified)      n

Does O=C1Nc2ccccc2/C1=C/c1cccs1 have growth strictly under 30%? n

Does COc1c(B(O)O)cccc1-c1nc2ccc3n[nH]c(F)c3c2c2c1CCCC2 have growth strictly under 30%? n
